molecular target: phosphorylated FGFR3 (SEQ ID NO: 5, amino acids 449 to 759) (Homo sapiens (Human), UniProt P22607); assay: FGFR enzyme binding assay (HTRF tracer displacement), FGFR3; conditions: 5 nM phosphorylated FGFR3, average of multiple determinations if made
Sequence (P22607 449-759): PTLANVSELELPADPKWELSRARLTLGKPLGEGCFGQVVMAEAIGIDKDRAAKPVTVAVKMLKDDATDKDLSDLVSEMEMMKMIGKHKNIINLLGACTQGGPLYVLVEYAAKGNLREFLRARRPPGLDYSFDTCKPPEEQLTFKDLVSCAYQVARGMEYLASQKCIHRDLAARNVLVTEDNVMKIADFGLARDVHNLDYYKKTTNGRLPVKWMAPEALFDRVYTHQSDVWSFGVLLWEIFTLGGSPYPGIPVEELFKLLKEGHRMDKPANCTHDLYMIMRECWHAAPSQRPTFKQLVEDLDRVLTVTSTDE
observed_property: IC50 (nM)

Field: example entries. Status: answers known.
{"compound": "C=CC(=O)Nc1ccccc1C(=O)N1CCC[C@@H](n2cc(-c3cc(OC)c4c(C#N)cnn4c3)cn2)C1", "observed_property": "IC50", "assay_result": 52}
{"compound": "C=CC(=O)N1CC(C(=O)N2CCC(n3cc(-c4cc(OC5CCC5)c5c(C#N)cnn5c4)cn3)CC2)C1", "observed_property": "IC50", "assay_result": 2}
{"compound": "C=CC(=O)N[C@H]1C[C@@H](C(=O)N2CC[C@@H](n3cc(-c4cc(OC)c5c(C#N)cnn5c4)cn3)C2)C1", "observed_property": "IC50", "assay_result": 61}
{"compound": "C=CC(=O)N1CCC(C(=O)N2CCC(n3ncc(-c4cc(OC)c5c(C#N)cnn5c4)c3C)CC2)CC1", "observed_property": "IC50", "assay_result": 23}

[I] C=CC(=O)Nc1ccc(CN2CCC(n3cc(-c4cc(OC)c5c(C#N)cnn5c4)cn3)CC2)cc1
[II] C=CC(=O)N1CC(C(=O)N2CCC(n3cc(-c4cc(OCC)c5c(C#N)cnn5c4)cn3)CC2)C1
[III] C=CC(=O)N1CC(OC)(C(=O)N2CCC(n3cc(-c4cc(OC)c5c(C#N)cnn5c4)cn3)CC2)C1
[IV] C=CC(=O)N1CC[C@H](C(=O)N2CC(n3cc(-c4cc(OC)c5c(C#N)cnn5c4)cn3)C2)C1
[V] COc1cc(-c2cnn(C3CN(CC4CN(C(=O)/C=C/CN5CCCCC5)C4)C3)c2)cn2ncc(C#N)c12
Could you please sort these 5 entries by IC50 from high to low? Could you list the labels in the order requested?
IV, V, II, I, III

[P] C=CC(=O)N1CC(F)(C(=O)N2CCC(n3cc(-c4cc(OC)c5c(Cl)cnn5c4)cn3)CC2)C1
[Q] C=CC(=O)N1CC(C(=O)N2CC3(C2)CN(c2ccc(-c4cc(OC)c5c(C#N)cnn5c4)cn2)C3)C1
[R] C=CC(=O)N1CCC(C(=O)N2CC[C@@H](n3cc(-c4cc(OC)c5c(C#N)cnn5c4)cn3)C2)CC1
Which order do these items take when sorted by rising IC50? List them. Could you list the labels in the order requested?
P, Q, R
(P: 3 nM, Q: 12 nM, R: 31 nM)

[a] C=CC(=O)NC1C2CC1C2C(=O)N1CCC(n2cc(-c3cc(OC)c4c(C#N)cnn4c3)cn2)CC1 (centres unmarked)
[b] C=CC(=O)Nc1ccc(C(=O)N2CC[C@H](n3cc(-c4cc(OC)c5c(C#N)cnn5c4)cn3)C2)c(C)c1
Which has the higher IC50, a or b ? // output: label of the selected item
b

[a] COc1cc(-c2cnn(C3CCN(C(=O)C4CN(C(=O)/C=C/CN5CC[C@H](F)C5)C4)CC3)c2)cn2ncc(C#N)c12
[b] C=CC(=O)N1CC(C)(CN2CCC(n3ncc(-c4cc(OC)c5c(C#N)cnn5c4)c3C)CC2)C1
[c] C=CC(=O)N1CC(CN2CCC(n3ncc(-c4cc(OC)c5c(Cl)cnn5c4)c3C)CC2)C1
Could you please sort these 3 entries by IC50 from high to low? Could you list the labels in the order requested?
b, c, a
(b: 14 nM, c: 9 nM, a: 2 nM)

[a] C=CC(=O)N1CC(C(=O)N2C[C@H]3C[C@@H]2CN3c2ccc(-c3cc(OC)c4c(C#N)cnn4c3)cn2)C1
[b] C=CC(=O)N1CCC(C(=O)N2CCC(n3cc(-c4cc(OC)c5c(C#N)cnn5c4)cn3)CC2)C(F)(F)C1 (centres unmarked)
[c] C=CC(=O)N1CCN(c2cccc(-n3cc(-c4cc(OC)c5c(C#N)cnn5c4)cn3)c2)CC1
Could you please sort these 3 entries by IC50 from high to low? Could you list the labels in the order requested?
c, a, b

[1] C=CC(=O)N1CC(C(=O)N2CCC(n3cnc(-c4cc(OC)c5c(C#N)cnn5c4)c3)CC2)C1
[2] C=CS(=O)(=O)N1CCC(C(=O)N2CCC(n3cc(-c4cc(OC)c5c(C#N)cnn5c4)cn3)CC2)CC1
[3] COc1cc(-c2cnn(C3CCN(C(=O)C4(OC)CN(C(=O)/C=C/CN(C)C)C4)CC3)c2C)cn2ncc(Cl)c12
[4] C=CC(=O)Nc1ccc(C(=O)N2CC[C@H](n3cc(-c4cc(OC)c5c(C#N)cnn5c4)cn3)C2)cc1
[5] C=CC(=O)N1CC(CN2CC(n3cc(-c4cc(OC)c5c(C#N)cnn5c4)cn3)C2)C1
Which order do these items take when sorted by rising IC50? List them. Could you list the labels in the order requested?
2, 3, 4, 1, 5

[P] COc1cc(-c2cnn(C3CCN(C(=O)C4CN(C(=O)/C=C/CN(C)C)C4)CC3)c2)cn2ncc(Cl)c12
[Q] C=CC(=O)N1CC(S(=O)(=O)N2CCC(n3cc(-c4cc(OC)c5c(C#N)cnn5c4)cn3)CC2)C1
Hi! Which is lower in terms of IC50, the first one P or the second one Q ? // output: label of the selected item
Q
(Q: 2 nM, P: 12 nM)

FYI, the data here is from patent US12180207B2.
